System: DLD-1 colon
PROTOCOL_TEXT: NCI tumour cell line growth inhibition, 48 h
Each entry below carries its reported TGI.

- COMPOUND: "CCOC(=O)Cn1c(=O)n(C)c(=O)c2c1ncn2Cc1ccccc1"
  TGI: "> 100 µM"
- COMPOUND: "OCCNCCOc1ccc(/C(=C(/Cl)c2ccccc2)c2ccccc2)cc1"
  TGI: "27.4 µM"
- COMPOUND: "C=CCn1c2c(sc1=S)C(S)N=CN2 (centres undefined)"
  TGI: "> 100 µM"
- COMPOUND: "COc1cc2c(c(O)c1O)-c1ccc(OC)c(=O)cc1C(NC(C)=O)CC2 (centres undefined)"
  TGI: "> 100 µM"
- COMPOUND: "CCN(CC)CCNC(=O)c1ccc(C)c(OCc2ccccc2)c1[N+](=O)[O-]"
  TGI: "> 100 µM"
- COMPOUND: "CC(C(=O)n1c2ccccc2c2ccccc21)N(c1ccccc1)c1ccccc1 (centres undefined)"
  TGI: "43 µM"
- COMPOUND: "Cc1c2ccncc2c(C)c2c1[nH]c1ccccc12"
  TGI: "2.33 µM"
- COMPOUND: "O=C1c2cccc(NCCNCCO)c2C(=O)c2cccc(NCCNCCO)c21"
  TGI: "12.6 µM"
- COMPOUND: "O=C(O)CSc1n[nH]c(Cc2ccccc2)n1"
  TGI: "> 100 µM"
- COMPOUND: "COc1cc(C2C(C(=O)Nc3cc(F)c(F)cc3F)=C(C)NC(C)=C2C(=O)Nc2cc(F)c(F)cc2F)ccc1O"
  TGI: "> 100 µM"
- COMPOUND: "C/C(CCn1[nH]c(=O)ccc1=O)=N\\OCCCc1ccccc1"
  TGI: "> 100 µM"
- COMPOUND: "COc1c(O)c(O)cc2c1-c1ccc(OC)c(=O)cc1C(NC(C)=O)CC2 (centres undefined)"
  TGI: "> 100 µM"
- COMPOUND: "Cc1cccc(C)c1NC(=O)C(=O)CC(=O)c1cccc([N+](=O)[O-])c1"
  TGI: "> 100 µM"
- COMPOUND: "NC(=O)c1ncn2c1NC(=O)CC2"
  TGI: "> 100 µM"
- COMPOUND: "CC1=C(c2cc(C(=O)Nc3ccc(Cl)cc3)nc(=S)[nH]2)Sc2ccccc2N1"
  TGI: "> 100 µM"
- COMPOUND: "COC(=O)c1cccc2cccc(C(=O)Nc3ccc(Cl)cc3)c12"
  TGI: "> 62.5 µM"
- COMPOUND: "CC(=O)OC1C2CCC1C1C2C2(Cl)C(Cl)=C(Cl)C1(Cl)C2(Cl)Cl (centres undefined)"
  TGI: "33.3 µM"
- COMPOUND: "O=S1(=O)OCCOS(=O)(=O)C1Cl"
  TGI: "> 100 µM"
- COMPOUND: "COc1cc(C(=O)C/C(CCC(=O)Nc2ccc(Cl)cc2Cl)=N/NC(=O)C(=O)NN)ccc1O"
  TGI: "> 100 µM"
